molecular target: DRB1*0802 (Homo sapiens, UniProt P01903+P01911, A100R/A103L/A169T/F76Y/H45Y/I96F/K41T/L162R/M171V/P40S/Q125H/Q178H/Q39Y/Q99D/R218S/R42G/S66Y/V115G/W38E); test: biochemical; assay type: binding
No end group written: not given here.
Result Type: pIC50
Scale for pIC50: -log10 of concentration given in mol/L; no unit attached.

The following sequences have reported results that may help.
- TPEWIQRQTVLQHSF [Peptide 89.0010]: 5.70
- EISFAGIVTKLPTAN [Peptide 89.0174]: 4.95
- LCVNSTASDLRTIQQ [Peptide 1543.15]: 5.36
- DRGIIILLLIRFRCS [Peptide 89.0062]: 7.07
- FLDVVTIPNSVQISV [Peptide 1601.40]: 4.83
- VMFLRYQGVEFMSFL [Peptide 89.0014]: 4.87

Reported pIC50 of NCILLYGAANTGKSL [Peptide 89.0017] : 5.57
